- TEST SYSTEM: T1, FcRL6, overexpressed on 3T3 cells (UniProt Q6DN72 20-434, limits assumed)
- T1 construct: whole, on cells
- T1 sequence (looked up): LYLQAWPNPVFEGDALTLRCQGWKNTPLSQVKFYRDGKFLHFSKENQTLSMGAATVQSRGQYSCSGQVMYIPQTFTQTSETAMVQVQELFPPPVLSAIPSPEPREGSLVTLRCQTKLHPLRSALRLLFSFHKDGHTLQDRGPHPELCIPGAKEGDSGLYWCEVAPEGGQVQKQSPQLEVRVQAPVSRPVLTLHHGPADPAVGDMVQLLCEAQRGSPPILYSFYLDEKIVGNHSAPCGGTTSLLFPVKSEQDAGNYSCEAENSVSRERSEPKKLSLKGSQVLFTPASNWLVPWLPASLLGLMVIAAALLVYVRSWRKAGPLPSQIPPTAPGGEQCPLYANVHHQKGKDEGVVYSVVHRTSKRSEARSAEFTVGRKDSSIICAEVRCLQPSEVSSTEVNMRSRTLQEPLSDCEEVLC
- ASSAY NOTES: phage clone on 3T3-FcRL6 cells
PARAMETER MEASURED: binding result

Please look up its binding result: ET200-023 (scFv, screened as phage clone; entry is VL-linker-VH-His tag-HA tag) scFv: LPVLTQPPSVSVAPGKTARITCGGNNIGSKSVHWYQQKPGQAPVLVVYADSDRPSGIPERFSGSNSGNTATLTISRVEAGDEADYYCQVWDSSSYHNYVFGTGTKVTVLGSRGGGGSGGGGSGGGGSLEMAEVQLVQSGAEVKKPGASVKVSCKASGYTFTSYGISWVRQAPGQGLEWMGWISAYNGNTNYAQKLQGRVTMTTDTSTSTAYMELSSLRSEDTAMYYCARYWGFGVSDRWGQGTLVTVSSTSGQAGQHHHHHHGAYPYDVPDYAS no binding

Please look up its binding result: ET200-013 (scFv, screened as phage clone; entry is VL-linker-VH-His tag-HA tag) scFv: QSVVTQPPSVSGAPGQRVTISCTGSTSNIGAGYDVHWYQQLPGTAPKLLIYTNNFRPSGVPDRFSASKSGTSASLAITGLQAEDEADYYCGTWDSSLSAVVFGGGTKLTVLGSRGGGGSGGGGSGGGGSLEMAEVQLVESGTEVKKPGASVKVSCKASGYMFTSYGLNWVRQAPGQGLEWMGWISANNGKTNYAKKFQDRVTMTRDTSTSTGYMELRSLRSDDTAVYYCARHIGGSYFDRWGQGTLVTVSSTSGQAGQHHHHHHGAYPYDVPDYAS no binding
